Test system: Mycobacterium tuberculosis
Assay: Inhibitory activity against Mycobacterium tuberculosis H37Rv
Format: functional
Each entry below carries its recorded MIC.

Below, 5 compounds whose answers are already recorded.
compound	assayReadout	assayResult
C=CCC1(C)SC(=O)C(C)=C1O (stereo unspecified)	MIC	> 1000 µM
CC1=C(O)C(C)(C2CCCC2)SC1=O (stereo unspecified)	MIC	> 1000 µM
COc1ccccc1CC1(C)SC(O)=C(C)C1=O (stereo unspecified)	MIC	> 1000 µM
COc1ccc(CC2(C)SC(O)=C(C)C2=O)cc1 (stereo unspecified)	MIC	> 1000 µM
C=CCCC1(C)SC(=O)C(C)=C1O (stereo unspecified)	MIC	> 1000 µM

So what does the record say about MIC for CC(C)=CCC1(C)SC(O)=C(C)C1=O (stereo unspecified) ?
> 1000 µM

Requested field: MIC. Item: CCCCCCCCCCCCCCCCC1(C)SC(O)=C(C)C1=O (stereo unspecified)
> 1000 µM

Which MIC reading was recorded for the compound CC1=C(O)C(C)(Cc2ccccc2Cl)SC1=O (stereo unspecified) ?
1000 µM

Look up MIC: CC1=C(O)C(C)(Cc2ccc(Cl)c(Cl)c2)SC1=O (stereo unspecified)
500 µM

Which value of MIC has been reported for CCCCCCCCCCCCCCC1(C)SC(O)=C(C)C1=O (stereo unspecified) in the records?
1000 µM

----------
// reported pIC50 for each item listed
Molecular target: 3-oxoacyl-[acyl-carrier-protein] synthase 2 (Mycobacterium tuberculosis)
Sequence (P9WQD7 whole entry): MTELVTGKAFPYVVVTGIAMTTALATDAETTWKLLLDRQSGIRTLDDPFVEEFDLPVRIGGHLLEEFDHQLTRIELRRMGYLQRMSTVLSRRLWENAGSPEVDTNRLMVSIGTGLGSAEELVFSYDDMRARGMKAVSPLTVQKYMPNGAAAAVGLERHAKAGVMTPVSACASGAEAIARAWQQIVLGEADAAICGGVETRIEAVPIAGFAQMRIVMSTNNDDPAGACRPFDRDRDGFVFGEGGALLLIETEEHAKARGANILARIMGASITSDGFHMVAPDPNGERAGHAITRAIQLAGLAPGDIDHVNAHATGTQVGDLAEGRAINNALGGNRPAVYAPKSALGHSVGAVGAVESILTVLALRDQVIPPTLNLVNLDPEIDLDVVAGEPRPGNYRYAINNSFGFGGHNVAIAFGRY
pIC50: −log10 of the molar value.

Which pIC50 is listed for C=C/C=C/C1(C)SC(=O)C(C)=C1O (centres undefined) ?
3.40

----------
Biological target: Mycobacterial beta-ketoacyl-[acyl-carrier-protein] synthase III (Mycobacterium tuberculosis)
Experiment: Inhibitory activity against FabH from Mycobacterium tuberculosis H37Rv at 100 uM
Activity calls are given as the source filed them. The calls are words filed in the database; no cut-off is given here.

compound	inhibition
CC[C@H](C)CC1(C)SC(O)=C(C)C1=O (stereo partly drawn)	inactive
CCC(CC)CC1(C)SC(O)=C(C)C1=O (stereo not drawn)	inactive
CC1=C(O)SC(C)(CC(C)C)C1=O (stereo not drawn)	inactive

----------
Reported MIC by item:
Tested on: Escherichia coli
Assay: Inhibitory activity against Escherichia coli ANSI
Type: functional
Just the number please, in µM, no unit attached.

compound	assayReadout	assayResult
CC(C)=CCC/C(C)=C/CC/C(C)=C/CC1(C)SC(O)=C(C)C1=O (stereo unspecified)	MIC	200
CCCCCCCCCCCCCCC1(C)SC(O)=C(C)C1=O (stereo unspecified)	MIC	200
C=C/C(C)=C/[C@@]1(C)SC(=O)C(C)=C1O [THIOLACTOMYCIN]	MIC	6
CCCCCCCCCCCC1(C)SC(O)=C(C)C1=O (stereo unspecified)	MIC	25
CCCCCCCCCC1(C)SC(O)=C(C)C1=O (stereo unspecified)	MIC	100

Attention now shifts to the item below.
Bench note: what MIC did CCCCCCCCC(C)C1(C)SC(O)=C(C)C1=O (stereo unspecified) show?
35
